Below, each entry is listed with its recorded Cmax.
experiment: Cmax in Wistar rat at 10 mg/kg, po by UPLC-MS/MS analysis; type: ADME, organism-based; set-up: dose 10 mg/kg, route oral; settings: in vivo
Give your result in nM as a bare value.

Examples with answers:
Cc1ccccc1-c1c2nccc(-c3ccc(F)cc3F)c2cc[n+]1[O-] :: 5300
[O-][n+]1ccc2c(-c3ccc(F)cc3F)cc(NC3CCNCC3)nc2c1-c1c(F)cccc1F :: 90

*Q* Given [O-][n+]1ccc2c(-c3ccc(F)cc3F)cc(C3CCNCC3)nc2c1-c1c(Cl)cccc1Cl , respond with its Cmax.
*A* 200

====

experiment: Metabolic stability in rat liver microsomes assessed as metabolic rate at 5 uM after 30 mins by UPLC-MS/MS analysis; format: ADME, Microsome; conditions: read-out: Activity
assayMetric: metabolised at 0.5 h, 5 µM (%)
Give your result in % as a bare value.

*Q* Given Cc1ccccc1-c1c2nccc(-c3ccc(F)cc3F)c2cc[n+]1[O-] , respond with its metabolised at 0.5 h, 5 µM.
*A* 9

====

test: Metabolic stability in human liver microsomes assessed as metabolic rate at 5 uM after 30 mins by UPLC-MS/MS analysis; format: ADME, Microsome; settings: read-out: Activity
assayMetric: metabolised at 0.5 h, 5 µM

*Q* Given Cc1ccccc1-c1c2nccc(-c3ccc(F)cc3F)c2cc[n+]1[O-] , respond with its metabolised at 0.5 h, 5 µM.
*A* < 5%

====

experiment: Bioavailability in Wistar rat at 10 mg/kg, po and at 1 mg/kg, iv measured up to 6 hrs; format: ADME, organism-based; settings: Wistar, in vivo
assayMetric: bioavailability (%)
Give your result in % as a bare value.

*Q* Given [O-][n+]1ccc2c(-c3ccc(F)cc3F)cc(C3CCNCC3)nc2c1-c1c(Cl)cccc1Cl , respond with its bioavailability.
*A* 16

====

assay: Tmax in Wistar rat at 10 mg/kg, po by UPLC-MS/MS analysis; format: ADME, organism-based; design: dose 10 mg/kg, route oral; conditions: in vivo
Below, each entry is listed with its recorded Tmax.
Report the figure along with its unit, number first.

*Q* Given Cc1ccccc1-c1c2nccc(-c3ccc(F)cc3F)c2cc[n+]1[O-] , respond with its Tmax.
*A* 210 min

*Q* Given [O-][n+]1ccc2c(-c3ccc(F)cc3F)cc(C3CCNCC3)nc2c1-c1c(Cl)cccc1Cl , respond with its Tmax.
*A* 18 min

*Q* Given [O-][n+]1ccc2c(-c3ccc(F)cc3F)cc(NC3CCNCC3)nc2c1-c1c(F)cccc1F , respond with its Tmax.
*A* 18 min

====

Below, each entry is listed with its recorded half-life.
test: Half life in Wistar rat at 1 mg/kg, iv by UPLC-MS/MS analysis; type: ADME, organism-based; parameters: dose 1 mg/kg, route intravenous; conditions: in vivo

[O-][n+]1ccc2c(-c3ccc(F)cc3F)cc(C3CCNCC3)nc2c1-c1c(Cl)cccc1Cl :: 2.3 h
Cc1ccccc1-c1c2nccc(-c3ccc(F)cc3F)c2cc[n+]1[O-] :: 7.4 h

Continue with the compound presented below.
*Q* Given [O-][n+]1ccc2c(-c3ccc(F)cc3F)cc(NC3CCNCC3)nc2c1-c1c(F)cccc1F , respond with its half-life.
*A* 4.6 h
